B1: CPEB3 Ribozyme (parent)
chain: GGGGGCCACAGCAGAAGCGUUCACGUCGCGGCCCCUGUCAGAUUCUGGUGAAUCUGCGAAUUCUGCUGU

Variants of: B1
Assay: self-cleavage, relative activity (ratio to wild type); higher = more cleavage; co-transcriptional
Param threshold (0.8) applies to self-cleavage; output Criterion met when value >= threshold, Criterion not met when value < threshold.

Prompt: Decide: self-cleavage of GGGGGCCACAGCAGAAGCGUUCACGUCGCGGCCCCUGUCAGCUUCUUGUGAAUCUGCGAAUUCUGCUGU [A42C G47U] >= 0.8?
Response: Criterion met

Prompt: Can GGGGGCCAAAGCAGAAGCGUUCAUGUCGCGGCCCCUGUCAGAUUCUGGUGAAUCUGCGAAUUCUGCUGU [C9A C24U] be said to have self-cleavage at or above 0.8?
Response: Criterion met

Prompt: Does the reported self-cleavage for GUGGGCCACAGCAGAAGCGUUCACGUCGCGGCCCCUGUCAGAUUCUGGUGAAUCUGCGAAUCCUGCUGU [G2U U62C] fall at or above the 0.8 mark?
Response: Criterion not met

More entries:
Prompt: Exam item: decide whether the reported self-cleavage for GGGGGCCACAGCAGAAGCGUUCACGUCGCGGCCCCUGUCAGAUUCUGGUGAAUCAGCGAAUUCUGCAGU [U55A U67A] is at least 0.8.
Response: Criterion met

Prompt: Identify whether the reported self-cleavage of the following variant is 0.8 or greater: GGGGGCCACAGCAGAAACGUUCACGUCGCGGCCCCUGUCAGAUUCUGGUGAAUCUUCGAAUUCUGCUGU [G17A G56U]
Response: Criterion not met

Prompt: # check: self-cleavage of GGGGGCCAUAGCAGAAGCGUUCACGUCGCGGCCCCAGUCAGAUUCUGGUGAAUCUGCGAAUUCUGCUGU [C9U U36A] is greater than or equal to 0.8
Response: Criterion not met
